All figures here come from patent US20240084042A1.

Each item that follows carries a reported log10 of koff.
# experimental-target: T1, human KLK5 (human, UniProt Q9Y337 67-293)
# T1 construct: also called huKLK5; KLK5 AMC
# T1 sequence: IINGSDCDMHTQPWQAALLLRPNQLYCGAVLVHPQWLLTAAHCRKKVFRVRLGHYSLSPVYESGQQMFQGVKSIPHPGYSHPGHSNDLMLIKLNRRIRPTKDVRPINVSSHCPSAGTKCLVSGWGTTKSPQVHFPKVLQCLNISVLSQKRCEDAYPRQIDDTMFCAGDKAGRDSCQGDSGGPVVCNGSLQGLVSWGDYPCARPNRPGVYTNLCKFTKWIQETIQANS
# assay-name: SPR, one-armed monovalent antibody
result-type: log10 of koff (log10 of the value in s⁻¹)

binder: OA.hu.10C5.N53V.S34K (antibody, V domains shown, One-armed (OA) monovalent anti-KLK5 antibody with a human IgG1 Fc, with Q38E/Q39K; constant regions and dummy Fc chain not specified) VH: EVQLVESGGGLVQPGGSLRLSCAASGFSLSSYGVTWVRKAPGKGLEWIGYITSVYGVSYYASWAKSRSTISRDTSKNTVYLQMGSLRAEDMAVYYCARENPDYGYAYDAWGQGTTVTVSS VL: AIRMTQSPSSFSASTGDRVTITCQASESISNELKWYQEKPGKAPKLLIYYASTLASGVPSRFSGSGSGTDFTLTISSLQPEDFATYYCAQGFGSSGVENVFGGGTKVEIK
experimental-value: -5.01
//
binder: OA.hu.10C5.L5H28.WT (antibody, V domains shown, One-armed (OA) monovalent anti-KLK5 antibody with a human IgG1 Fc, without Q38E/Q39K; constant regions and dummy Fc chain not specified) VH: EVQLVESGGGLVQPGGSLRLSCAASGFSLSSYGVTWVRQAPGKGLEWIGYITSNYGVSYYASWAKSRSTISRDTSKNTVYLQMGSLRAEDMAVYYCARENPDYGYAYDAWGQGTTVTVSS VL: AIRMTQSPSSFSASTGDRVTITCQASESISNELSWYQQKPGKAPKLLIYYASTLASGVPSRFSGSGSGTDFTLTISSLQPEDFATYYCAQGFGSSGVENVFGGGTKVEIK
experimental-value: -2.89
//
binder: OA.hu.10C5.N53V.F92Y.S95F (antibody, V domains shown, One-armed (OA) monovalent anti-KLK5 antibody with a human IgG1 Fc, with Q38E/Q39K; constant regions and dummy Fc chain not specified) VH: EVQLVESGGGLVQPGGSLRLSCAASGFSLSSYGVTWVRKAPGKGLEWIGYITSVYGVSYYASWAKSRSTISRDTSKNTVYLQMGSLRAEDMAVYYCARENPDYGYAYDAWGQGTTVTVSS VL: AIRMTQSPSSFSASTGDRVTITCQASESISNELSWYQEKPGKAPKLLIYYASTLASGVPSRFSGSGSGTDFTLTISSLQPEDFATYYCAQGYGSFGVENVFGGGTKVEIK
experimental-value: -5.06
//
binder: OA.hu.10C5.N53V.S34K.F92Y.S95F (antibody, V domains shown, One-armed (OA) monovalent anti-KLK5 antibody with a human IgG1 Fc, with Q38E/Q39K; constant regions and dummy Fc chain not specified) VH: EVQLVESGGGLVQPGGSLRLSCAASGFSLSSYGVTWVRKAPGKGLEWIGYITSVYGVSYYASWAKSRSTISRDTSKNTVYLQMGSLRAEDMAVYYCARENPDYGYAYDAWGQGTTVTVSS VL: AIRMTQSPSSFSASTGDRVTITCQASESISNELKWYQEKPGKAPKLLIYYASTLASGVPSRFSGSGSGTDFTLTISSLQPEDFATYYCAQGYGSFGVENVFGGGTKVEIK
experimental-value: -5.73
//
binder: OA.hu.10C5.N53V.S95F (antibody, V domains shown, One-armed (OA) monovalent anti-KLK5 antibody with a human IgG1 Fc, with Q38E/Q39K; constant regions and dummy Fc chain not specified) VH: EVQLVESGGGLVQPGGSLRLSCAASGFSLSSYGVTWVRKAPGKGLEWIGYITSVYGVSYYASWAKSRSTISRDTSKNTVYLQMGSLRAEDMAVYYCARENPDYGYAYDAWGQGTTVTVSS VL: AIRMTQSPSSFSASTGDRVTITCQASESISNELSWYQEKPGKAPKLLIYYASTLASGVPSRFSGSGSGTDFTLTISSLQPEDFATYYCAQGFGSFGVENVFGGGTKVEIK
experimental-value: -4.82
//
binder: OA.hu.10C5.N53V.F92Y (antibody, V domains shown, One-armed (OA) monovalent anti-KLK5 antibody with a human IgG1 Fc, with Q38E/Q39K; constant regions and dummy Fc chain not specified) VH: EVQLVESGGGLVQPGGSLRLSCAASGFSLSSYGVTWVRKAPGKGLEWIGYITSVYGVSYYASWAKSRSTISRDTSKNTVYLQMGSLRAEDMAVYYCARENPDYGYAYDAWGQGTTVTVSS VL: AIRMTQSPSSFSASTGDRVTITCQASESISNELSWYQEKPGKAPKLLIYYASTLASGVPSRFSGSGSGTDFTLTISSLQPEDFATYYCAQGYGSSGVENVFGGGTKVEIK
experimental-value: -4.61
